From: PubChem BioAssay AID248

Exercise: state measured T/C for each of the compounds provided.
system: L1210 leukemia ip in BDF1 mice, survival T/C; assay: NCI In Vivo Anticancer Drug Screen. Data for tumor model L1210 Leukemia (intraperitoneal) in B6D2F1 (BDF1) mice; conditions: endpoint: mean survival time; dose: 100.0 mg/kg/injection; schedule: Q04DX002 (ip); vehicle: saline with Tween-80; higher = longer survival
Toxic doses and inconclusive results are not listed.

Please report the recorded T/C for CC(C)COC(c1ccc2c(c1)OCO2)C(C)Br (stereo unspecified) .
96 % of control

Item under review: O=C(C1=CN(CC(O)c2ccccc2)CCC1)c1cc2ccccc2n1S(=O)(=O)c1ccccc1 (stereo unspecified) . Reported T/C?
97 % of control

Report T/C for Cc1c(-c2ccccc2)sc(N)c1C#N please.
94 % of control

I am curious: what T/C value has been reported for Cc1cccc(-c2nnc(-c3cccc(C)n3)o2)n1 ?
95 % of control

Name the recorded T/C for CC(=O)c1ccc(CCC(=O)O)cc1 .
94 % of control

Can you share its T/C? I mean this compound: COc1ccc(C(=O)NC(=S)Nc2ccc(O)cc2)cc1
98 % of control
